Biological target: randomly biotinylated human FIXa (human, UniProt P00740 47-191; P00740 227-461, randomly biotinylated (NHS-d-biotin))
Sequence (P00740 47-191, chain 1 of 2): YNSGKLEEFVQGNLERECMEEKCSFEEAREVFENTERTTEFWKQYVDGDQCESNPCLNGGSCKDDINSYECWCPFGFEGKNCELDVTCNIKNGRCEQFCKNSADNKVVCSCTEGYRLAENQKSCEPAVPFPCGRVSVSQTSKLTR
Sequence (P00740 227-461, chain 2 of 2): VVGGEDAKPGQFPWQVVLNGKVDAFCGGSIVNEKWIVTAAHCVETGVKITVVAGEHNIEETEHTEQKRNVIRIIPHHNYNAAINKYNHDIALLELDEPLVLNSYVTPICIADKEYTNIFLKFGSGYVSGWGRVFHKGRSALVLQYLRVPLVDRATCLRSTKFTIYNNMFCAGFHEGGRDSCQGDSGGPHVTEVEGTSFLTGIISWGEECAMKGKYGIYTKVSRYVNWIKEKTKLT
Experiment: BLI (Octet) in-tandem binning on biotinylated FIXa, 330 nM each; competitor (1st antibody): 224F3
Reported interferometry response value values are given for each entry in this list.
// return just the number, without any unit appended

Measured interferometry response value of mAb01-9985 (antibody, V domains shown, Bivalent IgG) VH: EVQLVESGGGLVQPGRSLRLSCAASGFTFHDYAMHWVRQVPGKGLEWVSGISWRGDIGGYVKSVKGRFTISRDNAKNSLYLQMNSLRAEDTALYYCVKSYGSGSFYNAFDSWGQGTLVTVSS VL: DIQMTQSPSTLSASVGDRVTITCRASQSISSWLAWYQQKPGKAPKFLIYKASKLERGTPSRFSGSGSGTEFSLTISSLQPDDFATYYCLEYSSYIRTFGQGTKVEIK : 0.44

Measured interferometry response value of mAb01-9933 (antibody, V domains shown, Bivalent IgG) VH: EVQLVESGGGLVQPGRSLKLSCAASGFTFDDYAMHWVRQVPGKGLEWVSGISWKGDIGGYVDSVKGRFTISRDNAKNSLYLQLNSLRAEDTALYYCAKSYGSGSFYNAFDSWGQGTLVTVSS VL: DIQMTQSPSTLSASAGDEVTITCRASQSISSWLAWYQQKPGKAPKLLIYKASKLDRGVPSRFSGSGSGTEFSLTISDLQPDDFATYYCLEYSSYIRTFGQGTKVEIK : 0.34

Measured interferometry response value of mAb01-9978 (antibody, V domains shown, Bivalent IgG) VH: EVQLVESGGGLVQPGRSLRLSCAASGFTFHDYAMHWVRQVPGKGLEWVSGISWKGDIGGYVDSVKGRFTISRDNEKNSLYLQMNSLRAEDTALYYCVKSYGSGSFYNAFDSWGQGTLVTVSS VL: DIQMTQSPSTLSASVGDRVTITCRASQSISSWLAWYQQKPGKAPKLLIYKASRLERGTPSRFSGSGSGTEFSLTISSLQPDDFATYYCLEYSSYIRTFGQGTKVEIK : 0.24

Measured interferometry response value of 224F3 (mAb01-1582) (antibody, V domains shown) VH: QVQMQQSGAELVKPGASVKLSCKASGYTFTSQDINWVRQRPEQGLEWIGWIFPGDGSTKYNEKLKGKATLTTDKSSSTAFMQLSRLTSEDSAVYFCARSAYYRYDGSYYYAMDYWGQGTSVTVSS VL: QIVLTQSPAIMSASLGEEITLTCSASSSVSYMLWYQQKSGTSPKLLIYTTSNLASGVPSRFSGTGSGTFYSLTISSVEAEDAADYYCHQWSSYPRTFGGGTKLEIKR : 0.11

Measured interferometry response value of mAb01-9994 (antibody, V domains shown, Bivalent IgG) VH: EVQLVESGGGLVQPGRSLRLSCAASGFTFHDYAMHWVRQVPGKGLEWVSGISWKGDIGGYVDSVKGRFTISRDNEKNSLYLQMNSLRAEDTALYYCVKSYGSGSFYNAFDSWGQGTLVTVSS VL: DIQMTQSPSTLSASVGDRVTITCRASQSISSWLAWYQQKPGKAPKFLIYKASRLDRGTPSRFSGSGSGTEFSLTISSLQPDDFATYYCLEYSSYIRTFGQGTKVEIK : 0.4
